// provenance: patent US20260285873A1

- ASSAY DETAILS: Oral pharmacokinetic study in rats
- Assay type: in vivo
- CONDITION SUMMARY: rat, brain, 5 mg/kg, male SD rats, oral gavage, 5 mpk, read-out: B/P (1 h)
MEASURE NAME: Kp at 1 h

>  <COMPOUND>
Cc1nn2cc1Nc1ncc3c(Cl)cc(n3n1)CCCNC(=O)C2(C)C [Example T-25]

>  <QUANTITATIVE RESULT>
0.58

$$$$

---

- ASSAY DETAILS: Oral pharmacokinetic study in rats
- Format: in vivo
- CONDITION SUMMARY: rat, brain, 3 mg/kg, male SD rats, oral gavage, 3 mpk, read-out: B/P (1 h)

>  <COMPOUND>
Cc1nn2cc1Nc1ncc(C(F)(F)F)c(n1)NCCCNC(=O)C2(C)C [Example T-1]

>  <Kp at 1 h>
0.13

$$$$
